Origin of the recorded values: patent US11408885B2

Molecular target: MMP2 (Homo sapiens, UniProt P08253)
Sequence (P08253 110-660): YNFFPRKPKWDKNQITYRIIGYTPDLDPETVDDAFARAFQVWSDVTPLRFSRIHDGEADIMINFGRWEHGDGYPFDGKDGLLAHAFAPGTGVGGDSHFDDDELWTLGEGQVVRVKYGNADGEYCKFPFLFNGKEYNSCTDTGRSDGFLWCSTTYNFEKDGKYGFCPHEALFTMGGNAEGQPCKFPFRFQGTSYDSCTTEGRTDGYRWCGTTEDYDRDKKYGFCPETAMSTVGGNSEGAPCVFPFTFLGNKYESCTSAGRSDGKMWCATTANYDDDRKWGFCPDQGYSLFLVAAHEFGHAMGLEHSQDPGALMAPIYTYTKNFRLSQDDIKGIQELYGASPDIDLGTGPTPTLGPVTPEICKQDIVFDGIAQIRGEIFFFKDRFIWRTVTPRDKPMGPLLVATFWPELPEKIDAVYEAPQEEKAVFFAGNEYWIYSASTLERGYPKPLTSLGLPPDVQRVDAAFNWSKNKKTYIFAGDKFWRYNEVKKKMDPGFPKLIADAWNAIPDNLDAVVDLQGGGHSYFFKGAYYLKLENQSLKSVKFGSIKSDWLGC
Experiment: FRET substrate cleavage by recombinant MMP, inhibition by activity-based probe
Format: biochemical
Set-up: purchased Peprotech
Conditions: FRET substrate PEPDAB011 10 μM, read-out: IC50, inhibition of substrate cleavage of active MMP
Parameter Measured: pIC50
Answer as the number alone; pIC50 is minus log10 of concentration in mol/L.

-- ask Please look at this compound and report its pIC50: CC(C)CC(C(=O)NC(Cc1ccc(C(=O)c2ccccc2)cc1)C(=O)NCCOCCOCCOCC(=O)NCC(C)(C)SSC(C)(C)CNC(=O)CCCCC1SCC2NC(=O)NC21)C(O)C(=O)NO (stereo not shown)
-- reply 8.48
